# Test system: Escherichia coli IAI1
# Experiment Summary: fold change of Putrescine concentration vs plate DMSO controls (fold change (ratio)); higher = more amine produced, active = hit call of the paper (significant change in both replicates, either direction)
# Assay Setup: incubation time: 27 h, anaerobic, 37 °C
Where a name gives a salt, the structure may show the parent alone.

Compound: CCCCCCCCc1c(CC)nc2ncnn2c1N (20 µM)
Study System: Escherichia coli IAI1
fold change of Putrescine concentration: 1.01 (inactive)

Compound: CNCC(O)c1ccc(OC(=O)C(C)(C)C)c(OC(=O)C(C)(C)C)c1 (configuration not stated) [Dipivefrin hydrochloride] (20 µM)
Study System: Escherichia coli IAI1
fold change of Putrescine concentration: 1.01 (inactive)

Compound: CC(C)NC[C@H](O)COc1cccc2ccccc12 [(S)-(-)-Propranolol hydrochloride] (20 µM)
Study System: Escherichia coli IAI1
fold change of Putrescine concentration: 0.986 (inactive)

Compound: O=C(COc1ccc(Cl)cc1)N1CCN(Cc2ccc3c(c2)OCO3)CC1 [Fipexide hydrochloride] (20 µM)
Study System: Escherichia coli IAI1
fold change of Putrescine concentration: 1 (inactive)

Compound: CC(=O)N(CC(C)C(=O)O)c1c(I)cc(I)c(N)c1I (configuration not stated) [Iocetamic acid] (20 µM)
Study System: Escherichia coli IAI1
fold change of Putrescine concentration: 1.09 (inactive)

Compound: CC(C(=O)O)c1ccc(C(=O)c2ccccc2)s1 (configuration not stated) [Tiaprofenic acid] (20 µM)
Study System: Escherichia coli IAI1
fold change of Putrescine concentration: 1.08 (inactive)

Compound: COc1cc(C(=O)OCCCN2CCCN(CCCOC(=O)c3cc(OC)c(OC)c(OC)c3)CC2)cc(OC)c1OC [Dilazep dihydrochloride] (20 µM)
Study System: Escherichia coli IAI1
fold change of Putrescine concentration: 1.01 (inactive)

* * *

List of growth values.
# Test system: Clostridium sporogenes DSM 1664
# Experiment Summary: growth (OD595) fold change vs plate DMSO controls (fold change (ratio)); higher = more growth
# Assay Setup: incubation time: 27 h, anaerobic, 37 °C
Structures can show the parent of a compound that is named as a salt.

Compound: NCCNCCNCCNCCN [Tetraethylenepentamine pentahydrochloride] (20 µM)
growth: 1
--
Compound: Oc1ccc(C2CNCCc3c2cc(O)c(O)c3Cl)cc1 (stereo not given) [Fenoldopam] (20 µM)
growth: 1.08
--
Compound: CC(C)(O)c1ccccc1CC[C@@H](SCC1(CC(=O)O)CC1)c1cccc(/C=C/c2ccc3ccc(Cl)cc3n2)c1 [Montelukast] (20 µM)
growth: 0.909
--
Compound: COc1cc(NS(=O)(=O)c2ccc(N)cc2)ncn1 [Sulfamonomethoxine] (20 µM)
growth: 1.06
--
Compound: CN1CCOC(c2ccccc2)c2ccccc2C1 (stereo not given) [Nefopam hydrochloride] (20 µM)
growth: 1.09
--
Compound: O=C(O)CNC(=O)c1ccccc1 [Hippuric acid] (20 µM)
growth: 1.12
--
Compound: O=C(O)Cc1ccccc1Oc1ccc(Cl)cc1Cl [Fenclofenac] (20 µM)
growth: 0.896
--
Compound: CC(=O)Oc1c(C)cccc1C(=O)O [Cresopirine] (20 µM)
growth: 1.04
--
Compound: C[C@@H]1O[C@@H](O[C@H]2[C@H](Oc3cc(O)c(C(=O)CCc4ccc(O)cc4)c(O)c3)O[C@H](CO)[C@@H](O)[C@@H]2O)[C@H](O)[C@H](O)[C@H]1O [Naringin Dihydrochalcone] (50 µM)
growth: 1.1
--
Compound: Cc1ccc(Nc2c(F)cccc2Cl)c(CC(=O)O)c1 [Lumiracoxib] (20 µM)
growth: 0.867
--
Compound: CCOc1nc2cccc(C(=O)O)c2n1Cc1ccc(-c2ccccc2-c2nnn[nH]2)cc1 [Candesartan] (20 µM)
growth: 1.16
--
Compound: Cc1c(N(C)CS(=O)(=O)O)c(=O)n(-c2ccccc2)n1C [Dipyrone sodium salt] (20 µM)
growth: 1.02
--
Compound: CC1(C)[C@@H](O[C@H]2O[C@H](C(=O)O)[C@@H](O)[C@H](O)[C@H]2O[C@@H]2O[C@H](C(=O)O)[C@@H](O)[C@H](O)[C@H]2O)CC[C@]2(C)[C@H]3C(=O)C=C4[C@@H]5C[C@@](C)(C(=O)O)CC[C@]5(C)CC[C@@]4(C)[C@]3(C)CC[C@@H]12 [Glycyrrhizic acid] (50 µM)
growth: 0.971
--
Compound: CCC[C@@H]1C[C@@H](C(=O)N[C@@H]([C@H]2O[C@H](SC)[C@H](O)[C@@H](O)[C@H]2O)[C@@H](C)O)N(C)C1 [Lincomycin hydrochloride] (20 µM)
growth: 0.767
--
Compound: CC(C)(c1ccc(O)cc1)c1ccc(O)cc1 [Bisphenol A] (20 µM)
growth: 0.972

Sourced from the supplement of paper PMC12494721
